Reported TA100 +S9 is given for each of the following compounds.
- System: TA100
- test-summary: Ames test, strain TA100
- Assay type: cell-based
- measurement-setup: 0.5 μg/dish
- Method: To assess the mutagenic effects of 5 compounds (IMM-004; IMM-065; IMM-127; IMM-128; IMM-313), the Ames test was performed in 4 strains (TA97; TA98; TA100; TA102). The experiment was conducted with compounds at 4 concentration levels (0.5, 5, 50 and 500 μg/dish). […]
// return just the number, without any unit appended

Below are worked cases with known answers.
INSERT INTO assay_data (structure_notation, study_system, measurement) VALUES
  ('O=c1c2cc(F)ccc2[se]n1-c1ccccn1', 'TA100', 95.00),
  ('O=c1c2cc(F)ccc2[se]n1-c1cccnc1', 'TA100', 167.33),
  ('C/C(=N\O)c1ccc(-n2[se]c3ccccc3c2=O)cc1', 'TA100', 176.67),
  ('O=c1c2cc(Cl)ccc2[se]n1-c1ccccn1', 'TA100', 191.33);

Now look at this one.
# compound O=c1c2ccc(Cl)cc2[se]n1-c1ccncc1 ; its TA100 +S9 = 99.33
